Reference source for all entries: patent US5808049A

assay: Stereoselective hydrolysis of anticancer agent esters with human histiocytic leukemia cells U937; settings: human, u937 cells, pH 7.5
Parameter: metabolised at 12 h
Include the unit after the number when you answer.

Query (compound): O=C(OC[C@H]1O[C@@H](n2cc(F)c(=O)[nH]c2=O)[C@H](O)[C@@H]1O)C(Cc1ccccc1)NC(=O)C(F)(F)F (stereo partly shown) ; field requested: metabolised at 12 h 12.6%

* * *

assay: in vitro; details: rat, blood, pH 7.5
Parameter: metabolised at 12 h (%)
Express it in %; write the number only.

Answered cases to consult:
INSERT INTO assay_data (compound, numeric_result) VALUES
  ('CC(C(=O)Oc1ccc(N(CCCl)CCCl)cc1)c1ccccc1 (racemic)', 5.8),
  ('COC(C(=O)Oc1ccc(N(CCCl)CCCl)cc1)c1ccccc1 (racemic)', 55.2);

For the next question, use this compound.
So what does the record say about metabolised at 12 h for O=C(Oc1ccc(N(CCCl)CCCl)cc1)C(Cc1ccccc1)NC(=O)C(F)(F)F (racemic) ? 18.2
